# measured target: human sodium channels Nav 1.7 (Homo sapiens, UniProt Q15858)
# Sequence (Q15858 whole entry): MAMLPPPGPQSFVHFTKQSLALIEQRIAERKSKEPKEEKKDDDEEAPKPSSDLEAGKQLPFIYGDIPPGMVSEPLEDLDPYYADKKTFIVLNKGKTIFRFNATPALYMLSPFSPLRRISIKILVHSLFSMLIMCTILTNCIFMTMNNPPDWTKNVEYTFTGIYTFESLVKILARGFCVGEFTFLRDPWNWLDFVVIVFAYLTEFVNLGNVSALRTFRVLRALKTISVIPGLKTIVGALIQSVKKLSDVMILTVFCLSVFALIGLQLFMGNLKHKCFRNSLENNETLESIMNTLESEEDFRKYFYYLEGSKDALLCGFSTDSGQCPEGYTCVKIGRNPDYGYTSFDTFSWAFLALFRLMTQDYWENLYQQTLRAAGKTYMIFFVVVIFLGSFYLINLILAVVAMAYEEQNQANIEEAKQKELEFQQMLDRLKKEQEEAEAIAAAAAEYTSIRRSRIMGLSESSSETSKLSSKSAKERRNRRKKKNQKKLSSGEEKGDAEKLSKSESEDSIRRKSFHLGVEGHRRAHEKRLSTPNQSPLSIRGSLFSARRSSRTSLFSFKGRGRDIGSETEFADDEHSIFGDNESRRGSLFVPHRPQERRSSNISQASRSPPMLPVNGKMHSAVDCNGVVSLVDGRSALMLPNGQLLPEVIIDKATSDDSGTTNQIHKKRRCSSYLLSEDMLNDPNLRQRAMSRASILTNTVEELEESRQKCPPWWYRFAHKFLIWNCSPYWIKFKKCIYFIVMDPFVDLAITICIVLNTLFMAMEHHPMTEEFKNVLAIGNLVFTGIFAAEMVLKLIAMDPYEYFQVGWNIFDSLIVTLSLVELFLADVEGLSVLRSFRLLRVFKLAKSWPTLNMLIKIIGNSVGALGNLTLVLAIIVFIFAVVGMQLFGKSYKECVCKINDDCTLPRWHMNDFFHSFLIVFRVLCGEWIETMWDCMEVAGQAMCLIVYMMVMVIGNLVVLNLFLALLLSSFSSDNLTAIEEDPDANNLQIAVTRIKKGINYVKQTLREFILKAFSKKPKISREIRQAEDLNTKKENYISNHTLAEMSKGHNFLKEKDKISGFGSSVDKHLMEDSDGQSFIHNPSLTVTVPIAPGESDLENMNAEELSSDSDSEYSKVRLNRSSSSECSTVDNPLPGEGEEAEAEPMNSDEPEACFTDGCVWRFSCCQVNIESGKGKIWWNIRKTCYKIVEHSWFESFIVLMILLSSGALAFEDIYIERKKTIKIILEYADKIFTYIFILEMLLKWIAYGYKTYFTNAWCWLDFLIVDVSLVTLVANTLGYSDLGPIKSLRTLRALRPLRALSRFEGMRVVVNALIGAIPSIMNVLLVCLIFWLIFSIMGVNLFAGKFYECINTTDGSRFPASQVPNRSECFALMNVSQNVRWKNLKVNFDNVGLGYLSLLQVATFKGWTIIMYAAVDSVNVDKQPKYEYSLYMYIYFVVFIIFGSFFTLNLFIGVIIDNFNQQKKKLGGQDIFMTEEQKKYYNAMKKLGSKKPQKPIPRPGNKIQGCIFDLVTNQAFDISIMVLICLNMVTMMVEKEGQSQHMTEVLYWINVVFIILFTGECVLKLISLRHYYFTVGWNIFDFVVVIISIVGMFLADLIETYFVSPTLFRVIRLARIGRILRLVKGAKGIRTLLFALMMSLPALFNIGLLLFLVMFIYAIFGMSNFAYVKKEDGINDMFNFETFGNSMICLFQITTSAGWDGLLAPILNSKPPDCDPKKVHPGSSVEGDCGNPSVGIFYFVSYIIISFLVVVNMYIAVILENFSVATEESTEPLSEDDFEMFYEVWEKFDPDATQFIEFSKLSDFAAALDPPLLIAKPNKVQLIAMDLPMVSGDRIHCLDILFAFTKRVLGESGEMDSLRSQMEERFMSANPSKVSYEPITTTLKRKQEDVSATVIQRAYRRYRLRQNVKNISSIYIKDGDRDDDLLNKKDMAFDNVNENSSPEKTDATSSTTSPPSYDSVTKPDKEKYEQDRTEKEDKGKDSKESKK
# test protocol: Automated whole-cell voltage-clamp (ScreenPatch 384P) sodium current block, Nav 1.7
# conditions used: CHO cells stably expressing human Nav 1.7; inactivation step -40 mV 8 s, test step 0 mV (TP1A); eight concentrations; exposure at least five minutes; room temperature; read-out: Nav1.7 IC50
Quick reference for IC50 among some molecules

>>> reading("CCOc1ccc(-c2cncc(C(=O)N/N=C/c3ccnn3C)n2)cn1")
"> 1000 nM"
>>> reading("CCOc1ccc(-c2nc(C(=O)N/N=C/c3cc(OC)ccc3F)cnc2O)cn1")
"> 1000 nM"

Consider the record given below.
In: Can you share its IC50? I mean this molecule: COc1ccc(F)c(/C=N/NC(=O)c2cncc(-c3ccc(OC4CC4)nc3)n2)c1
Out: < 500 nM

Recorded values, source patent EP4660182A1.
